So I've got a bunch of compounds here, and I need their relative viability values.
System: NCI-H1395
Assay overview: relative viability (nuclei count vs DMSO), 5 days (fraction); higher = more cells survive
Assay conditions: first compound 0.01581 µM

For the compound COc1cc2nccc(Oc3ccc(NC(=O)Nc4cc(C)on4)c(Cl)c3)c2cc1OC [Tivozanib] + CC1(C)CCC(c2ccc(Cl)cc2)=C(CN2CCN(c3ccc(C(=O)NS(=O)(=O)c4ccc(N[C@H](CCN5CCOCC5)CSc5ccccc5)c(S(=O)(=O)C(F)(F)F)c4)cc3)CC2)C1 [Navitoclax] (partner 0.5 µM) , what relative viability is on record?
1.08

Would you mind telling me what relative viability value was observed for COc1cc2nccc(Oc3ccc(NC(=O)Nc4cc(C)on4)c(Cl)c3)c2cc1OC [Tivozanib] + Cc1cc(Nc2cc(N3CCN(C)CC3)nc(Sc3ccc(NC(=O)C4CC4)cc3)n2)n[nH]1 [Tozasertib] (partner 0.1 µM) ?
0.738

Would you mind telling me what relative viability value was observed for COc1cc2nccc(Oc3ccc(NC(=O)Nc4cc(C)on4)c(Cl)c3)c2cc1OC [Tivozanib] + CS(=O)(=O)N1CCN(Cc2cc3nc(-c4cccc5[nH]ncc45)nc(N4CCOCC4)c3s2)CC1 [Pictilisib] (partner 1 µM) ?
0.746

I am curious: what relative viability value has been reported for COc1cc2nccc(Oc3ccc(NC(=O)Nc4cc(C)on4)c(Cl)c3)c2cc1OC [Tivozanib] + Nc1ncn([C@H]2C[C@H](O)[C@@H](CO)O2)c(=O)n1 [Decitabine] (partner 2 µM) ?
0.672

###

What relative viability was measured for each of the following?
Test system: LK-2
Assay overview: relative viability (nuclei count vs DMSO), 5 days (fraction); higher = more cells survive
Assay conditions: first compound 0.005 µM

Find relative viability (LK-2) for the entry Nc1ccn([C@@H]2O[C@H](CO)[C@@H](O)[C@@H]2O)c(=O)n1 [Cytarabine] + Cc1nc(Nc2ncc(C(=O)Nc3c(C)cccc3Cl)s2)cc(N2CCN(CCO)CC2)n1 [Dasatinib] (partner 0.075 µM)
0.309

Provide the documented relative viability with LK-2 as the system for COc1cc2nccc(Oc3ccc(NC(=O)Nc4cc(C)on4)c(Cl)c3)c2cc1OC [Tivozanib] + CCNC(=O)c1noc(-c2cc(C(C)C)c(O)cc2O)c1-c1ccc(CN2CCOCC2)cc1 [Luminespib] (partner 0.01 µM)
0.179

# query: relative viability | item Nc1ccn([C@@H]2O[C@H](CO)[C@@H](O)[C@@H]2O)c(=O)n1 [Cytarabine] + O=C(c1cc(Cc2n[nH]c(=O)c3ccccc23)ccc1F)N1CCN(C(=O)C2CC2)CC1 [Olaparib] (partner 8 µM) | system: LK-2
0.659

Identify the measured relative viability of COc1cc2nccc(Oc3ccc(NC(=O)Nc4cc(C)on4)c(Cl)c3)c2cc1OC [Tivozanib] + COc1cc2c(Oc3ccc(NC(=O)C4(C(=O)Nc5ccc(F)cc5)CC4)cc3F)ccnc2cc1OCCCN1CCOCC1 [Foretinib] (partner 0.25 µM) for LK-2.
1.36

###

System: NCI-H2023
Assay overview: relative viability (nuclei count vs DMSO), 5 days (fraction); higher = more cells survive
Assay conditions: first compound 0.01581 µM
Endpoint: relative viability
Please reply with the value in numeric form only.

# get_value(readout= relative viability, system= NCI-H2023) for Nc1ccn([C@@H]2O[C@H](CO)[C@@H](O)[C@@H]2O)c(=O)n1 [Cytarabine] + C[C@]1(O)C[C@@H](c2nc(-c3ccc4ccc(-c5ccccc5)nc4c3)c3c(N)nccn32)C1 [Linsitinib] (partner 1 µM)
0.302

Notebook entry, NCI-H2023 assay: relative viability of COc1cc2nccc(Oc3ccc(NC(=O)Nc4cc(C)on4)c(Cl)c3)c2cc1OC [Tivozanib] + Cc1nc(NC(=O)N2CCC[C@H]2C(N)=O)sc1-c1ccnc(C(C)(C)C(F)(F)F)c1 [Alpelisib] (partner 2 µM) = ?
0.578

Request body: readout relative viability, system NCI-H2023, query Nc1ccn([C@@H]2O[C@H](CO)[C@@H](O)[C@@H]2O)c(=O)n1 [Cytarabine] + CS(=O)(=O)CCNCc1ccc(-c2ccc3ncnc(Nc4ccc(OCc5cccc(F)c5)c(Cl)c4)c3c2)o1 [Lapatinib] (partner 2 µM) . Return the value.
0.224

# get_value(readout= relative viability, system= NCI-H2023) for COc1cc2nccc(Oc3ccc(NC(=O)Nc4cc(C)on4)c(Cl)c3)c2cc1OC [Tivozanib] + CC(=O)Nc1cccc(-n2c(=O)n(C3CC3)c(=O)c3c(Nc4ccc(I)cc4F)n(C)c(=O)c(C)c32)c1 [Trametinib] (partner 0.02 µM)
0.603

Missing value: relative viability, NCI-H2023, entry COc1cc2nccc(Oc3ccc(NC(=O)Nc4cc(C)on4)c(Cl)c3)c2cc1OC [Tivozanib] + Nc1ncn([C@H]2C[C@H](O)[C@@H](CO)O2)c(=O)n1 [Decitabine] (partner 2 µM) . Fill in?
0.219

For the record COc1cc2nccc(Oc3ccc(NC(=O)Nc4cc(C)on4)c(Cl)c3)c2cc1OC [Tivozanib] + CS(=O)(=O)N1CCN(Cc2cc3nc(-c4cccc5[nH]ncc45)nc(N4CCOCC4)c3s2)CC1 [Pictilisib] (partner 1 µM) , what value of relative viability is listed for NCI-H2023?
0.228

Request: relative viability, test system NCI-H2023, entry Nc1ccn([C@@H]2O[C@H](CO)[C@@H](O)[C@@H]2O)c(=O)n1 [Cytarabine] + O=C(c1cc(Cc2n[nH]c(=O)c3ccccc23)ccc1F)N1CCN(C(=O)C2CC2)CC1 [Olaparib] (partner 8 µM)
0.276

Lab note: need relative viability with NCI-H2023 for entry Nc1ccn([C@@H]2O[C@H](CO)[C@@H](O)[C@@H]2O)c(=O)n1 [Cytarabine] + CCNC(=O)c1noc(-c2cc(C(C)C)c(O)cc2O)c1-c1ccc(CN2CCOCC2)cc1 [Luminespib] (partner 0.01 µM) , please look it up.
0.235

Observed relative viability on NCI-H2023 for Nc1ccn([C@@H]2O[C@H](CO)[C@@H](O)[C@@H]2O)c(=O)n1 [Cytarabine] + Nc1ncn([C@H]2C[C@H](O)[C@@H](CO)O2)c(=O)n1 [Decitabine] (partner 2 µM) , please.
0.116
